target of assay: human CD33 on primary human monocyte-derived dendritic cells (human, UniProt P20138 18-364)
Sequence (P20138 18-364): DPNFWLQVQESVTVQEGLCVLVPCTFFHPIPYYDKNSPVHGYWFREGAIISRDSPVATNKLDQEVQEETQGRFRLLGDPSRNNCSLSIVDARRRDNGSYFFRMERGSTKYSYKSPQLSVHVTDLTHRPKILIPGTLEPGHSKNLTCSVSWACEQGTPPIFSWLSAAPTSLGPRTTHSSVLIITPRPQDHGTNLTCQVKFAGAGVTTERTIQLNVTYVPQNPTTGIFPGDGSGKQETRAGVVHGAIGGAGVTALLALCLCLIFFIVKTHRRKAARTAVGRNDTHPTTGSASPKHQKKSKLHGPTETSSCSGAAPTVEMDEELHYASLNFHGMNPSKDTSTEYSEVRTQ
assay remarks: cell-based or functional assay
Measured Receptor downregulation (EC50), listed per entry.
State the answer as a number, implicitly in pM.

{"binder": "AB-14.9 (antibody, V domains shown) VH: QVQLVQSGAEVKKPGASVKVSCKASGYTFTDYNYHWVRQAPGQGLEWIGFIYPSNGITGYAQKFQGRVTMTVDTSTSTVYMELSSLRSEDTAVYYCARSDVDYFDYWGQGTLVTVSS VL: GIQMTQSPSSLSASVGDRVTITCRASQSVGTSTYSYMHWYQQKPGKAPKLLIKYAVNLESGVPSRFSGSGSGTDFTLTISSLQPEDFATYYCQHSWEIPLTFGQGTKLEIK", "Receptor downregulation (EC50), pM": 39.9}

Could you tell me which Receptor downregulation (EC50) is on file for AB-14.6 (antibody, V domains shown) VH: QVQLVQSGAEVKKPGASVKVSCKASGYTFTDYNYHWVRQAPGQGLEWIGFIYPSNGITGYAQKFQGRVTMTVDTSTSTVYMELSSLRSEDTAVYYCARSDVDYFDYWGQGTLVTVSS VL: DIQMTQSPSSLSASVGDRVTITCRASQSVGTSTYSYMHWYQQKPGKAPKLLIKYASALESGVPSRFSGSGSGTDFTLTISSLQPEDFATYYCQHSWEIPLTFGQGTKLEIK ?
32.4
